The molecules listed here are annotated with their pEC50.
system: A2780 cells; test: Viability assay in A2780 (Cell Titer Glo); assay type: cell-based, human; conditions: Homo sapiens; A2780 cells; read-out: A2780 Cell prolif. EC50
pEC50: −log10 of the molar value.

CC(=O)Nc1cn2nc(-c3cnc(N)c(-c4ccc(C(F)(F)F)cc4)c3)ccc2n1	> 6.00
Nc1ncc(-c2ccc3nc(NC(=O)C4CNC4)cn3c2)cc1C(F)(F)F	> 5.00
Nc1ncc(-c2ccc3nc(NC(=O)CCCN4CCOCC4)cn3c2)cc1C(F)(F)F	> 5.00
Nc1ncc(-c2ccc3nc(NC(=O)C4CCN4)cn3n2)cc1C(F)(F)F (centres unmarked)	> 5.00
C[C@@H](N)C(=O)Nc1cn2nc(-c3cnc(N)c(C(F)(F)F)c3)ccc2n1	> 5.00
Nc1ncc(-c2ccc3nc(NC(=O)c4ccccn4)cn3c2)cc1C(F)(F)F	> 4.60
CC(=O)Nc1cn2cc(-c3cnc(N)c(-c4ccccc4F)c3)ccc2n1	> 5.00
C[C@@H](NC(=O)OC(C)(C)C)C(=O)Nc1cn2nc(-c3cnc(N)c(C(F)(F)F)c3)ccc2n1	> 5.00

# get_value(readout= pEC50, system= A2780 cells) for Nc1ncc(-c2ccc3nc(NC(=O)c4ccc(F)nc4)cn3c2)cc1C(F)(F)F
> 4.60

Quick check: pEC50 on A2780 cells, item CC(=O)Nc1cn2cc(-c3cnc(N)c(OCC4CCN(C)CC4)n3)ccc2n1 ?
> 5.00

Test system A2780 cells; read-out pEC50; what value for NCC(=O)Nc1cn2cc(-c3cnc(N)c(C(F)(F)F)c3)ccc2n1 ?
> 5.00

What measured pEC50 is associated with CC(C)(C)OC(=O)NCCCC(=O)Nc1cn2nc(-c3cnc(N)c(C(F)(F)F)c3)ccc2n1 on A2780 cells?
> 6.00

Fill in the recorded pEC50 for this molecule, with A2780 cells as test system: CC(=O)Nc1cn2nc(-c3cnc(N)c(OCC(F)(F)F)n3)ccc2n1
> 5.00

Form: Entry = Nc1ncc(-c2ccc3nc(NC(=O)CCCO)cn3c2)cc1C(F)(F)F | System = A2780 cells | pEC50 = ____
> 5.00

The measured values listed here are drawn from patent US20100075965A1.
